Reported values of %Inh for individual entries
system: MAP3K1; conditions: concentration: 1 μM,replicates: in singlicate; n = 1;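 also: KINOMEscan kinase panel screen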

{"Molecule": "Cc1occc1-c1nc(N)c(OC[C@@H](N)Cc2c[nH]c3ccccc23)cc1-c1cc2c(C)n[nH]c2cn1 [GSK1660450]", "%Inh": "21%"}
{"Molecule": "Cl.Oc1cc(-c2nc(-c3ccccc3)[nH]c2-c2ccncc2)ccc1Cl [SB-386023]", "%Inh": "24%"}
{"Molecule": "C[C@@H](Oc1cc(-c2cnn(C3CCNCC3)c2)cnc1N)c1c(Cl)ccc(F)c1Cl", "%Inh": "68%"}
{"Molecule": "Cc1cc2cn[nH]c2cc1-c1cccc2c(N)c(C(N)=O)nnc12", "%Inh": "31%"}
{"Molecule": "C[C@@H]1CCN(C(=O)CC#N)C[C@@H]1N(C)c1ncnc2[nH]ccc12", "%Inh": "0%"}
{"Molecule": "O=C(NCCNc1ccnc(NCc2ccc(F)cc2)n1)c1cc2ccccc2s1 [GSK1379944]", "%Inh": "68%"}
{"Molecule": "Cc1ccc(-n2nc(C(C)(C)C)cc2NC(=O)Nc2ccc(OCCN3CCOCC3)c3ccccc23)cc1 [GW839464]", "%Inh": "0%"}
{"Molecule": "COc1ccc(C[C@@H](CN)NC(=O)c2cc(Br)c(-c3ccnc4[nH]ccc34)s2)cc1.Cl.Cl [GSK1389063]", "%Inh": "3%"}

----------
Reported values of %Inh for individual entries
system: CDC2L1; construct: gene CDK11B; settings: concentration: 1 μM,replicates: in singlicate; n = 1
Quantity measured: %Inh (%)

{"Compound": "Cc1cc2cn[nH]c2cc1-c1cccc2c(N)c(C(N)=O)nnc12", "Reading": 2}
{"Compound": "CCn1c(-c2nonc2N)nc2c(C#CC(C)(C)O)nc(OCCN)cc21.Cl.Cl [GSK902056]", "Reading": 0}
{"Compound": "CCN(CC)CCCCNc1ncc2cc(-c3c(Cl)cccc3Cl)c(NC(=O)NC(C)(C)C)nc2n1", "Reading": 0}
{"Compound": "Nc1nc(Nc2ccccc2)cc(-c2ccc3c(N)n[nH]c3c2)n1 [GSK2225749]", "Reading": 0}
{"Compound": "CN(C)CC(O)COc1ccc(Nc2nccc(-c3cnn4nc(N5CCOCC5)ccc34)n2)cc1 (centres unmarked) [GW767488]", "Reading": 20}

----------
system: IGF1R; details: concentration: 1 μM,replicates: in singlicate; n = 1

{"Compound": "NC(=O)c1cc(-c2ccccc2)cc2c(C3CCNCC3)c[nH]c12", "%Inh, %": 0}
{"Compound": "Cl.Cl.NC[C@H](Cc1ccc(C(F)(F)F)cc1)NC(=O)c1cc(Br)c(-c2ccnc3[nH]ccc23)s1", "%Inh, %": 11}
{"Compound": "CN(C)CC(O)COc1ccc(Nc2nccc(-c3cnn4nc(N5CCOCC5)ccc34)n2)cc1 (stereo not shown)", "%Inh, %": 0}
{"Compound": "CCN(CC)CCOc1ccc(Nc2ncc3cc(-c4c(Cl)cccc4Cl)c(=O)n(C)c3n2)cc1", "%Inh, %": 43}

----------
Reported values of %Inh for individual entries
tested on: NIM1; construct: gene MGC42105; settings: concentration: 1 μM,replicates: in singlicate; n = 1
Quantity measured: %Inh (%)

{"Molecule": "NC(=O)c1cc(-c2ccccc2)cc2c(C3CCNCC3)c[nH]c12", "Measure unit": "%", "Reading": 15}
{"Molecule": "O=C(NCCCN1CCOC1=O)c1cnc(NCc2cc(Cl)ccc2Cl)nc1NC1CCCC1", "Measure unit": "%", "Reading": 2}
{"Molecule": "Nc1nc(Nc2ccccc2)cc(-c2ccc3c(N)n[nH]c3c2)n1", "Measure unit": "%", "Reading": 15}
{"Molecule": "CNC(=O)c1ccccc1Sc1ccc2c(/C=C/c3ccccn3)n[nH]c2c1", "Measure unit": "%", "Reading": 8}
{"Molecule": "Cl.Cl.Nc1nc(-c2ccc3c(N)n[nH]c3c2)cc(N2CCCC(NC(=O)c3ccccc3)C2)n1 (centres unmarked)", "Measure unit": "%", "Reading": 2}
{"Molecule": "CN(C)CC(O)COc1ccc(Nc2nccc(-c3cnn4nc(N5CCOCC5)ccc34)n2)cc1 (centres unmarked)", "Measure unit": "%", "Reading": 51}
{"Molecule": "C[C@@H]1CCN(C(=O)CC#N)C[C@@H]1N(C)c1ncnc2[nH]ccc12", "Measure unit": "%", "Reading": 7}
{"Molecule": "Cc1occc1-c1nc(N)c(OC[C@@H](N)Cc2c[nH]c3ccccc23)cc1-c1cc2c(C)n[nH]c2cn1", "Measure unit": "%", "Reading": 74}
